- PROTOCOL SUMMARY: NVS_IC_rCaBTZCHL: NovaScreen (NVS) Ion Channel Assay for Calcium Channel, Type L, Benzothiazepine Site (CaBTZCHL) (AID 2283337)
- Protocol: NVS_IC_rCaBTZCHL is a biochemical, single-readout assay that uses extracted gene-proteins from Rat cortical membranes in a tissue-based cell-free assay. Measurements were taken 1.5 hours after chemical dosing in a 48-well plate.NVS_IC_rCaBTZCHL is one of one assay component(s) measured or calculated from the NVS_IC_rCaBTZCHL assay. […] This assay endpoint, NVS_IC_rCaBTZCHL, was analyzed in the positive analysis fitting direction relative to DMSO as the negative control and baseline of activity. […]
Inconclusive results are not listed. Activity calls are given as the source filed them. Rule for the calls: active = hit-call score of the fitted dose curve at least 0.9, where 1 is the maximum; inconclusive = response in the unintended direction; inactive = score below 0.9.
Pick one and only one: active, inactive

Example cases with answers are listed next.
MOL	LABEL VALUE
Cc1occc1C(=O)Nc1ccc(C(=O)N2CCC(F)(F)/C(=C\C(=O)N3CCC(N4CCCCC4)CC3)c3ccccc32)cc1	active
COc1ccc2cc(S(=O)(=O)N[C@H](CC(=O)N[C@H](Cc3ccc(CN4[C@H](C)CCC[C@@H]4C)cc3)C(=O)N(C)C(C)C)c3ccc4c(c3)OCO4)ccc2c1	active
CN(C)c1ccc(C(=C2C=CC(=[N+](C)C)C=C2)c2ccc(N(C)C)cc2)cc1	active
Cc1cc(F)ccc1-c1cc(N2CC[C@@H](O)[C@H]2CO)ncc1N(C)C(=O)C(C)(C)c1cc(C(F)(F)F)cc(C(F)(F)F)c1	inactive

Turning to the following compound.
(Q) Outcome logged for `CN(C)C(=O)C1(N2CCCCC2)CCN(CC[C@@]2(c3ccc(Cl)c(Cl)c3)CN(C(=O)c3ccccc3)CCO2)CC1` in this assay:
(A) active

----------
- Read-out: Monocyte Chemoattractant Protein-1 (MCP1), CCL2 (gene 6347)
- PROTOCOL SUMMARY: BSK_4H_MCP1: BioMAP Diversity Plus: 4H Assay for Monocyte Chemoattractant Protein-1 (MCP1) Biomarker Activity (AID 2283018)
- RECORDED CONDITIONS: primary human endothelial cells (HUVEC); actives raise or lower the signal
Active and inactive are the calls of the source. The calls were made as follows: active = hit-call score of the fitted dose curve at least 0.9, where 1 is the maximum; inactive = score below 0.9.
# valid calls are active, inactive; nothing else

See these solved cases before continuing.
MOL	LABEL VALUE
O=C(O)Cn1c(=O)n(Cc2ccc(Br)cc2F)c(=O)c2ccc(Cl)cc21	inactive
Oc1ccccc1	inactive
CC1(C)NC(=O)N(c2ccc([N+](=O)[O-])c(C(F)(F)F)c2)C1=O	inactive
CCO[Si](CCCNC(N)=O)(OCC)OCC	inactive
CCCOC(=O)c1cc(O)c(O)c(O)c1	inactive
CN(C)C(=O)C1(N2CCCCC2)CCN(CC[C@@]2(c3ccc(Cl)c(Cl)c3)CN(C(=O)c3ccccc3)CCO2)CC1	active
COc1cc(C(=O)NC2CCN(C)CC2)ccc1Nc1ncc2c(n1)N(C1CCCC1)CC(F)(F)C(=O)N2C	active
Cc1occc1C(=O)Nc1ccc(C(=O)N2CCC(F)(F)/C(=C\C(=O)N3CCC(N4CCCCC4)CC3)c3ccccc32)cc1	inactive
c1ccc2ccccc2c1	inactive
O=c1[nH]sc2ccccc12	active

(Q) I would be grateful if you could indicate the recorded call for `CCCCCCCCCCCCO` .
(A) active

----------
- TEST SYSTEM: Cellular tumor antigen p53 (Homo sapiens)
- PROTOCOL SUMMARY: TOX21_p53_BLA_p4_ratio: Tox21 HCT-116 p53 Agonism Beta-lactamase Assay, Ratio, Phase 4 (AID 2283601)
Inconclusive results are not listed. Calls of active or inactive are those of the source. How the source made its calls: active means hit-call score of the fitted dose curve at least 0.9, where 1 is the maximum; inconclusive means response in the unintended direction; inactive means score below 0.9.
Give your call using only these classes: active, inactive

COMPOUND	LABEL VALUE
O=c1[nH]sc2ccccc12	inactive
CN1C(=O)N(c2ccccc2Br)Cc2cnc(Nc3ccc4c(c3)OCC(CO)O4)nc21 (stereo unspecified)	active
CC(C)(C)c1cc(/C=C2\SC(N)=NC2=O)cc(C(C)(C)C)c1O	active
CCCCOC(=O)c1ccc(O)cc1	inactive
O=c1c(-c2ccc(O)cc2)coc2cc(O)cc(O)c12	inactive

(Q) Hey, what did the test say about `CCCCCCCCCC(=O)O` ?
(A) inactive

(Q) State the result this test recorded for `OCCO` .
(A) inactive

(Q) Outcome? `O=C(O)c1ccccc1-n1cc(C(=O)O)c(=O)c2cc(Nc3c(F)cc(F)cc3Cl)c(Cl)cc21`
(A) inactive

(Q) Please share the test call associated with `CCN(Cc1cccc(S(=O)(=O)O)c1)c1ccc(C(=C2C=CC(=[N+](CC)Cc3cccc(S(=O)(=O)O)c3)C=C2)c2ccccc2S(=O)(=O)[O-])cc1` .
(A) inactive

(Q) Each compound tested received a call. Report the one for `CCCCOC(=O)CC(CC(=O)OCCCC)(OC(C)=O)C(=O)OCCCC` .
(A) inactive

(Q) Per the assay record, what outcome was assigned to `COc1cc(C(=O)NC2CCN(C)CC2)ccc1Nc1ncc2c(n1)N(C1CCCC1)CC(F)(F)C(=O)N2C` ?
(A) active
